# subject-of-test: NAD-dependent protein deacetylase sirtuin-7 (Homo sapiens) (UniProt Q9NRC8)
# Sequence (Q9NRC8 whole entry, the tested form may be a part): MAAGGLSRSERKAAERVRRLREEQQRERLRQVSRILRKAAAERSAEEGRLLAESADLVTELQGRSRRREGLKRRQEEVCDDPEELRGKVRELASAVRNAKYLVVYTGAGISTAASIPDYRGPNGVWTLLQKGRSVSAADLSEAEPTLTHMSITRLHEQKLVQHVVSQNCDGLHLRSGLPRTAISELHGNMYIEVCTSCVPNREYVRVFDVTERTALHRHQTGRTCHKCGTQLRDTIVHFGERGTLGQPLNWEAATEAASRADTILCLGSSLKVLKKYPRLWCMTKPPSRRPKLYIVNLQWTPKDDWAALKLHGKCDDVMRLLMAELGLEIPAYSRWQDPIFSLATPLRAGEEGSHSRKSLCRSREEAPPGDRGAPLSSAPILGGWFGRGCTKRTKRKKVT
# assay-info: Substrate activity at human N-terminal His-tagged SIRT7 (68 to 354 residues) expressed in Escherichia coli at 50 uM measured after 2 hrs in presence of NAD+ and trypsin by fluorescence assay
*1 amine or outer side, *2 acyl side, *3 side chain or, on linkers, in order; H or OH if unused. Where a SMILES comes first, the peptide text is derived from it. The star is where a group is joined. AMC = Cc1cc(=O)oc2cc(N*)ccc12; Suc = O=C(CCC(=O)[*:2])[*:1]; Decanoyl = CCCCCCCCCC(=O)*
Please respond with reported Activity for every item in the list.
Form entry: value (RFU) — number only.

Query string: I am curious: what Activity value has been reported for CCCCCCCCCC(=O)NCCCC[C@H](NC(=O)[C@H](CC(=O)O)NC(=O)[C@@H](NC(=O)[C@H](CCC(=O)O)NC(C)=O)[C@@H](C)O)C(=O)Nc1ccc2c(C)cc(=O)oc2c1 (Ac-ETDK(Decanoyl)-{AMC}) ?
Result string: 0.73

Query string: Which value of Activity has been reported for CC(=O)N[C@@H](Cc1cnc[nH]1)C(=O)N[C@@H](Cc1ccccc1)C(=O)N[C@@H](CO)C(=O)N[C@@H](CCCCNC(=O)CCC(=O)O)C(=O)Nc1ccc2c(C)cc(=O)oc2c1 (Ac-HFSK(Suc)-{AMC}) in the records?
Result string: 0.51

Query string: Query: Activity; subject: CCCCCCCCCC(=O)NCCCC[C@H](NC(=O)[C@H](CCCNC(=N)N)NC(=O)[C@H](C)NC(=O)[C@@H](NC(C)=O)[C@@H](C)O)C(=O)Nc1ccc2c(C)cc(=O)oc2c1 (Ac-TARK(Decanoyl)-{AMC})
Result string: 0.79

Query string: I would be grateful if you could share the reported Activity for CC(=O)NCCCC[C@H](NC(=O)[C@H](CCCCN)NC(=O)[C@H](Cc1cnc[nH]1)NC(=O)[C@H](CCCNC(=N)N)NC(C)=O)C(=O)Nc1ccc2c(C)cc(=O)oc2c1 (Ac-RHKK(Ac)-{AMC}) .
Result string: 0.43

Query string: # input molecule: CCCCCCCCCC(=O)NCCCC[C@H](NC(=O)[C@H](CCCCN)NC(=O)[C@@H]1CCCN1C(=O)[C@H](CC(N)=O)NC(C)=O)C(=O)Nc1ccc2c(C)cc(=O)oc2c1 (Ac-NPKK(Decanoyl)-{AMC}) ; wanted: its Activity
Result string: 1.32

Query string: Suppose we examine the molecule CC(=O)NCCCC[C@H](NC(=O)[C@H](CCCNC(=N)N)NC(=O)[C@H](CO)NC(=O)[C@H](CC(N)=O)NC(C)=O)C(=O)Nc1ccc2c(C)cc(=O)oc2c1 (Ac-NSRK(Ac)-{AMC}) ; what Activity value has been reported?
Result string: 0.44

Provenance of the data: ChEMBL document CHEMBL4680222
